Tested on: F1 hybrid maize plants
Test: trait efficacy field trial, 2,4-D pressure screening, F1 hybrid
Format: in vivo
Conditions: CTP A; crop injury percentage; 8 lb ae/acre at VE-V2, V4, V8
Task for the reader: assign each of the following molecules its reported 8X 2,4-D CIPV4.
Enter a number only.

Documented 8X 2,4-D CIPV4 of MON-HT1: engineered oxygenase protein, amino acid sequence SEQ ID NO:14 (protein) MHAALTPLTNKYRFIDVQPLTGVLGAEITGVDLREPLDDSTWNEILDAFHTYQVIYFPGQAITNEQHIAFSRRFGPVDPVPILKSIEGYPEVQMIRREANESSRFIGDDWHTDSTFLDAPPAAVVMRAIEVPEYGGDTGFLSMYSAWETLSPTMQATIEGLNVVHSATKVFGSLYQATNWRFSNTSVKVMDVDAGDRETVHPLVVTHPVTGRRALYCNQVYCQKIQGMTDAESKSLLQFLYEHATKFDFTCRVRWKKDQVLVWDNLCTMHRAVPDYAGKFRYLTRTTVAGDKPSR : 5

Documented 8X 2,4-D CIPV4 of MON-HT9: engineered oxygenase protein, amino acid sequence SEQ ID NO:40 (protein) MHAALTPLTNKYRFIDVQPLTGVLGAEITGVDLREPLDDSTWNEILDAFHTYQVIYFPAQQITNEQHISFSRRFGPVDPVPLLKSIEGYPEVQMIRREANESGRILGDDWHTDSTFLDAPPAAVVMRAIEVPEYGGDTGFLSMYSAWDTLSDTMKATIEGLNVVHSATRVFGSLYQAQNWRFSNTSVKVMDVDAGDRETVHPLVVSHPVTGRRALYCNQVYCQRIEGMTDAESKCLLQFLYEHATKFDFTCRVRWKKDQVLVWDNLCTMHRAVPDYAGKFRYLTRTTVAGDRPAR : 25

Documented 8X 2,4-D CIPV4 of MON-HT10: engineered oxygenase protein, amino acid sequence SEQ ID NO:43 (protein) MHAALTPLTNKYRFIDVQPLCGVLGAEITGVDLREPLDDSTWNEILDAFHTYQVIYFPGQAITNEQHIAFSRRFGPVDPVPLLKSIEGYPEVQMIRREANESGRILGDDWHTDSTFLDAPPAAVVMRAIEVPEYGGDTGFLSMYSAWDTLSDTMKATIEGLNVVHSATRVFGSLYQAQNWRFSNTSVKVMDVDAGDRETVHPLVVSHPVTGRRALYCNQVYCQRIEGMTDAESKCLLQFLYEHATKFDFTCRVRWKKDQVLVWDNLCTMHLAVPDYDGKFRYLTRTTVAGDKPSR : 55

Documented 8X 2,4-D CIPV4 of MON-HT8: engineered oxygenase protein, amino acid sequence SEQ ID NO:37 (protein) MHAALTPLTNKYRFIDVQPLTGVLGAEITGVDLREPLDDSTWNEILDAFHTYQVIYFPGQAITNEQHIAFSRRFGPVDPVPILKSIEGYPEVQMIRREANESGRVIGDDWHTDSTFLDAPPAAVVMRAIEVPEYGGDTGFLSMYSAWETLSPTMQATIEGLNVVHSATKVFGSLYQATNWRFSNTSVKVMDVDAGDRETVHPLVVTHPVTGRRALYCNQVYCQKIQGMTDAESKSLLQFLYEHATKFDFTCRVRWKKDQVLVWDNLCTMHRSVPDYGNAFRYLTRTTVAGDKPSR : 10

Documented 8X 2,4-D CIPV4 of MON-HT2: engineered oxygenase protein, amino acid sequence SEQ ID NO:18 (protein) MHAALTPLTNKYRFIDVQPLTGVLGAEITGVDLREPLDDSTWNEILDAFHTYQVIYFPGQAITNEQHIAFSRRFGPVDPVPLLKSIEGYPEVQMIRREANESSRVIGDDWHSDSTFLDAPPAAVVMRAIEVPEYGGDTGFLSMYSAWETLSPTMQATIEGLNVVHSATKVFGSLYQATNWRFSNTSVKVMDVDAGDRETVHPLVVTHPVTGRRALYCNQVYCQKIQGMTDAESKSLLQFLYEHATKFDFTCRVRWKKDQVLVWDNLCTMHRAAPDYAGKFRYLTRTTVAGDKPSR : 10
